We begin with a simple list: items and their reported viability at 48 h, 10 µM.
# Test summary: in vitro
# Parameters: species or system CCD841, HEK293
# Cond: human, hb2 cells, read-out: HB-2 Cells Viability (%)

Compound	viability at 48 h, 10 µM (%)
C=CC(=O)NC1CCc2cnn(C(C)C)c2C1 (centres unmarked) [PCM-0102487]	95.5
CC1CCc2ccccc2N1C(=O)CCl (centres unmarked) [PCM-0102822]	92.2
O=C(CCl)Nc1ccc(Br)cc1Cl [PCM-0102505]	41.7
Cc1cc([N+](=O)[O-])ccc1NC(=O)CCl [PCM-0102134]	44.3
O=C(CCl)Nc1ccc(Cl)cc1C(=O)O [PCM-0102127]	100
Cc1nc(NC(=O)CCl)sc1-c1ccccc1 [PCM-0102788]	35.7
C=CC(=O)N1CCC(C#N)(c2ccccn2)CC1 [PCM-0102960]	102
Cc1cc(NC(=O)CCl)on1 [PCM-0102197]	74.3
CN(Cc1cc(C#N)ccc1F)C(=O)CCl [PCM-0102897]	23.8
O=C(CCl)NC1C2CC3CC(C2)CC1C3 (centres unmarked) [PCM-0102404]	63.3
C=CC(=O)N1CCCC(Cn2ccnn2)C1 (centres unmarked) [PCM-0102647]	101

Hey, just so you know, these numbers are from paper PMC6556873.
